- target: Bifunctional 3'-5' exonuclease/ATP-dependent helicase WRN (Homo sapiens, UniProt Q14191)
- Sequence (Q14191 whole entry): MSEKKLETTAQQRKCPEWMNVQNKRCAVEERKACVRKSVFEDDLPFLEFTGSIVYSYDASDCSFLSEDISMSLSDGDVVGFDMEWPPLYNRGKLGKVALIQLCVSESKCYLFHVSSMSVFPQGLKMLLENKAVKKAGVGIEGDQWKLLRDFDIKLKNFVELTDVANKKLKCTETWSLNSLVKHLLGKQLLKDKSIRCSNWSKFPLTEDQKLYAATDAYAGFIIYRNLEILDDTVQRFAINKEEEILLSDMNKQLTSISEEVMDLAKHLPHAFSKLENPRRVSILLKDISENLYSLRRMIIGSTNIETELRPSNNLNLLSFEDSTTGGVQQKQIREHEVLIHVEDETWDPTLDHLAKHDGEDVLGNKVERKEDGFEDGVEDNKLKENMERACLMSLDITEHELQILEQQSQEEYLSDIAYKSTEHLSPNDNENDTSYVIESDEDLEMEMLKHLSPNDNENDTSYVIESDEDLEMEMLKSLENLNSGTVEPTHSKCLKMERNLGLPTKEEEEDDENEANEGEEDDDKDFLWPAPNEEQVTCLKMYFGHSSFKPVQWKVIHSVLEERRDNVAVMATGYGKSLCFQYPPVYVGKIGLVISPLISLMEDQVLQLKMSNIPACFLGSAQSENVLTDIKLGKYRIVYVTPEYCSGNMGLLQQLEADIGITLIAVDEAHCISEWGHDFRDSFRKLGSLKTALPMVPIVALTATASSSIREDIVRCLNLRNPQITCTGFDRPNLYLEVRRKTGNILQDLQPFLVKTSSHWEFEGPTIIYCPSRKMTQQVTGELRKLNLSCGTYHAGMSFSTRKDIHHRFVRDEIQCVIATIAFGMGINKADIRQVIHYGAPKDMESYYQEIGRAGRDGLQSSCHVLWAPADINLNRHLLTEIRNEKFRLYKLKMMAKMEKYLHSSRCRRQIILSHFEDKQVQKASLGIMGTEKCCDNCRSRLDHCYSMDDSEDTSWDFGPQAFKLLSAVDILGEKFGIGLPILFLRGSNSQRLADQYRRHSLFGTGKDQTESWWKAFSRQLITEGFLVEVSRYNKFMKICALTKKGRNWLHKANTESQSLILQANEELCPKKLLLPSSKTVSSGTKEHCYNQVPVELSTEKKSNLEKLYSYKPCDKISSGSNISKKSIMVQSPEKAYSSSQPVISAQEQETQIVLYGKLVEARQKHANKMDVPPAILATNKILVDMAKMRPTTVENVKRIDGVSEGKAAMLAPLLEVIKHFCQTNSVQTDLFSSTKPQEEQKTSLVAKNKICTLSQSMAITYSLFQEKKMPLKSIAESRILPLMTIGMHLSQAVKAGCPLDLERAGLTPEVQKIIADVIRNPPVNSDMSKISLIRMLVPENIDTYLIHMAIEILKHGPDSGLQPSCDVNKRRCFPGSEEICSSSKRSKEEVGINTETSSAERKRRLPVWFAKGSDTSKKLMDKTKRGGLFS
- testDetails: ADP-Glo Kinase Assay
measure: IC50 (nM)

CCc1c(N2CCN(C(=O)c3ncnc(C)c3O)CC2)c(=O)n2nc(-c3ccc4c(c3)C(C)(C)OC4)nc2n1CC(=O)Nc1ccc(C(F)(F)F)cc1Cl    53
CCc1c(N2CCN(C(=O)c3ncnc(C)c3O)CC2)c(=O)n2nc(-c3cc4c(cc3C)COC4)nc2n1CC(=O)Nc1ccc(C(F)(F)F)cc1Cl    79
CCc1c(N2CCN(C(=O)C(C)n3cncn3)CC2)c(=O)n2nc(C3=CCOCC3)nc2n1CC(=O)Nc1ccc(C(F)(F)F)cc1Cl (stereo unspecified)    413
CCc1c(N2CCN(C(=O)c3ncnc(C)c3O)CC2)c(=O)n2nc(-c3cnn4c3CCC4)nc2n1CC(=O)Nc1ccc(C(F)(F)F)cc1Cl    16

1: CCc1c(N2CCN(C(=O)c3cccc4c3NS(=O)(=O)C=C4)CC2)c(=O)n2nc(-c3ccc4c(c3)COC4)nc2n1CC(=O)Nc1ccc(C(F)(F)F)cc1Cl
2: CCc1c(N2CCN(C(=O)c3ncnc(C)c3O)CC2)c(=O)n2nc(-c3ccc4ncccc4c3)nc2n1CC(=O)Nc1ccc(C(F)(F)F)cc1Cl
[ask] Kindly identify which of 1 and 2 has the larger recorded IC50 value. The response must carry the label of the picked entry.
[reply] 1
(1: 34 nM, 2: 23 nM)

1: CCc1c(N2CCN(C(=O)c3nccc4nc[nH]c34)CC2)c(=O)n2nc(-c3ccc4c(c3)CCOC4)nc2n1CC(=O)Nc1ccc(C(F)(F)F)cc1Cl
2: CCc1c(N2CCN(C(=O)c3ncnc(C)c3O)CC2)c(=O)n2nc(-c3ccc4c(c3)[C@H](C(F)(F)F)OC4)nc2n1CC(=O)Nc1ccc(C(F)(F)F)cc1Cl
3: CCc1c(N2CCN(C(=O)C3=CCOCC3)CC2)c(=O)n2nc(-c3ncc(O)cn3)nc2n1CC(=O)Nc1ccc(C(F)(F)F)cc1Cl
4: CCc1c(N2CCN(C(=O)c3ncnc(C)c3O)CC2)c(=O)n2nc(-c3ccc4c(c3)CN(C)C4)nc2n1CC(=O)Nc1ccc(C(F)(F)F)cc1Cl
5: CCc1c(N2CCN(C(=O)c3nccc4cc[nH]c34)CC2)c(=O)n2nc(-c3ccc4c(c3)COC4(C)C)nc2n1CC(=O)Nc1ccc(C(F)(F)F)cc1Cl
[ask] Ascending by IC50, please: list the compounds accordingly. Would you mind listing the labels in the order asked for?
[reply] 1, 4, 3, 2, 5

A: CCc1c(N2CCN(C(=O)c3ncnc(C)c3O)CC2)c(=O)n2nc(-c3ccc4c(c3)CCOC4)nc2n1C(F)(F)C(=O)Nc1ccc(C(F)(F)F)cc1Cl
B: CCc1c(N2CCN(C(=O)c3ncnc(C)c3O)CC2)c(=O)n2nc(-c3cccc4c3OCO4)nc2n1CC(=O)Nc1ccc(SC(F)(F)F)cc1Cl
[ask] Kindly identify which of A and B has the larger recorded IC50 value. The response must carry the label of the picked entry.
[reply] B

* * *

- target: Bifunctional 3'-5' exonuclease/ATP-dependent helicase WRN (Homo sapiens)
- testDetails: ADP-Glo Kinase Assay
measure: IC50 (nM)

Worked set:
CCc1c(N2CCN(C(=O)c3ncnc(C)c3O)CC2)c(=O)n2nc(-c3ccc4c(c3)CCO4)nc2n1CC(=O)Nc1c(Cl)cc(C(F)(F)F)c2scnc12    45
CCc1c(N2CCN(C(=O)c3ncnc(C)c3O)CC2)c(=O)n2nc(-c3cnn4c3CCCC4)nc2n1CC(=O)Nc1ccc(C(F)(F)F)cc1Cl    60
CCc1c(N2CCN(C(=O)c3ncnc(C)c3O)CC2)c(=O)n2nc(C3=CCOCC3)nc2n1CC(=O)NC12CCC(C(F)(F)F)(CC1)CC2    1950

1: CCc1c(N2CCN(C(=O)c3ncnc(C)c3O)CC2)c(=O)n2nc(-c3cccc4c3OCCO4)nc2n1CC(=O)Nc1ccc(SC(F)(F)F)cc1
2: CCc1c(N2CCN(C(=O)c3ncnc(C)c3O)CC2)c(=O)n2nc(C3=CCOCC3)nc2n1CC(=O)Nc1ccc(C(F)(F)F)cn1
[ask] Kindly identify which of 1 and 2 has the larger recorded IC50 value. The response must carry the label of the picked entry.
[reply] 1
(1: 420 nM, 2: 155 nM)

* * *

- target: Bifunctional 3'-5' exonuclease/ATP-dependent helicase WRN [480-1251] (UniProt Q14191)
- Construct: 480-1251
- Sequence (Q14191 480-1251): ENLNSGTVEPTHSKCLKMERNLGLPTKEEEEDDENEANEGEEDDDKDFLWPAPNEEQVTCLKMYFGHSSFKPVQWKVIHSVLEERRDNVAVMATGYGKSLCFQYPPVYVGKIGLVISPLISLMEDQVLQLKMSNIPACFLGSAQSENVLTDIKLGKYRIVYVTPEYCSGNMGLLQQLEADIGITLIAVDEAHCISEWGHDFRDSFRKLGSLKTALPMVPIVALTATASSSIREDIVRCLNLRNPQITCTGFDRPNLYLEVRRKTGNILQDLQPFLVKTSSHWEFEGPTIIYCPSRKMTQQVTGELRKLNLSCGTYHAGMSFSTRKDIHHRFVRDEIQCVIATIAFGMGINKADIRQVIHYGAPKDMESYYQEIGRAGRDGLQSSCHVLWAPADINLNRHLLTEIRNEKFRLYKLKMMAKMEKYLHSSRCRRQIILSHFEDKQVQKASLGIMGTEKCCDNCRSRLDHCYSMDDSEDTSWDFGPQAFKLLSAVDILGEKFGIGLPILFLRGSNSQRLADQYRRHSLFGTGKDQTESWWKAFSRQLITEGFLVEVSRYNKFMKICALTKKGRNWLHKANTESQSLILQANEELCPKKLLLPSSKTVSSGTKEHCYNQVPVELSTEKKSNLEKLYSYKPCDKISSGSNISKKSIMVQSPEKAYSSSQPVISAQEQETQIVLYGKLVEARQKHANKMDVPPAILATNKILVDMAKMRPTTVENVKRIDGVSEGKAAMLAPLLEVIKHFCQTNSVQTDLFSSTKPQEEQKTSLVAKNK
- testDetails: Biochemical Activity Assays
- Experimental: The pure fractions were pooled and desalted/buffer exchanged into storage buffer using a HiTrap desalting column. […] First, WRN alone was pre-incubated with DMSO or compound of interest for 15 minutes. To initiate the reaction, ATP, dsDNA substrate, and ssDNA competitor (ssDNA_comp: […]) were added and incubated at room temperature for 20 minutes at which point DNA unwinding activity was monitored by measuring Cy3 fluorescence. […]
measure: IC50 (nM)

Worked set:
CCc1c(N2CCN(C(=O)c3ncnc(C)c3O)CC2)c(=O)n2nc(-c3cccc4c3COC(C)(C)C4)nc2n1CC(=O)Nc1ccc(C(F)(F)F)cc1Cl [WO2025049746, Example 222]    45
CCc1c(N2CCN(C(=O)c3ncnc(C)c3O)CC2)c(=O)n2nc(-c3cnn4c3COCC4)nc2n1CC(=O)Nc1ccc(C(F)(F)F)cc1Cl    53.6
CCc1c(N2CCN(C(=O)c3ccccc3NS(=O)(=O)C3CC3)CC2)c(=O)n2nc(N(C)C)nc2n1CC(=O)Nc1ccc(C(F)(F)F)cc1Cl    28.2

a: CCc1c(N2CCN(C(=O)c3ncnc(C)c3O)[C@H]3CC[C@@H]32)c(=O)n2nc(-c3ccc4c(c3)COC4(C)C)nc2n1CC(=O)Nc1ccc(C(F)(F)F)cc1Cl
b: CCc1c(N2CCN(C(=O)c3ncnc(C)c3O)CC2)c(=O)n2nc(C3=CCOCC3)nc2n1CC(=O)Nc1ccc(C(F)(F)F)n(C)c1=O
[ask] // returns a or b , whichever has the lower IC50 The response must carry the label of the picked entry.
[reply] a

* * *

- target: Bifunctional 3'-5' exonuclease/ATP-dependent helicase WRN (Homo sapiens)
- testDetails: ADP-Glo Kinase Assay
measure: IC50 (nM)

CCc1c(N2CCN(C(=O)c3ncnc(C)c3O)CC2)c(=O)n2nc(-c3cc4cn(C(F)F)nc4cc3F)nc2n1CC(=O)Nc1ccc(C(F)(F)F)cc1Cl [WO2025049746, Example 291]    30
CCc1c(N2CCN(C(=O)c3ncnc(C)c3O)CC2)c(=O)n2nc(-c3cccc4c3CCCO4)nc2n1CC(=O)Nc1ccc(C(F)(F)F)cc1Cl [WO2025049746, Example 159]    231
CCc1c(N2CCN(C(=O)c3ncnc(C)c3O)CC2)c(=O)n2nc(-c3ccc4nc(C)oc4c3)nc2n1CC(=O)Nc1ccc(C(F)(F)F)cc1Cl [WO2025049746, Example 237]    82

I: CCc1c(N2CCN(C(=O)c3nc4c(cc3O)OCCC4)CC2)c(=O)n2nc(-c3ccc4c(c3)COC4)nc2n1CC(=O)Nc1ccc(C(F)(F)F)cc1Cl [WO2025049746, Example 432]
II: CCc1c(N2CCN(C(=O)c3ncnc(C)c3O)CC2)c(=O)n2nc(-c3ccc4nn(C)c(C)c4c3)nc2n1CC(=O)Nc1ccc(C(F)(F)F)cc1Cl [WO2025049746, Example 298]
[ask] // returns I or II , whichever has the lower IC50 The response must carry the label of the picked entry.
[reply] II
(II: 31 nM, I: 88 nM)

* * *

- target: Bifunctional 3'-5' exonuclease/ATP-dependent helicase WRN (Homo sapiens)
- testDetails: ADP-Glo Kinase Assay
pIC50: −log10 of the molar value.
measure: pIC50

CCc1c(N2CCN(C(=O)c3nc4c(cc3O)OCC4)CC2)c(=O)n2nc(-c3ccc4c(c3)COC4)nc2n1CC(=O)Nc1ccc(C(F)(F)F)cc1Cl    7.21
CCc1c(N2CCN(C(=O)c3cccc4[nH]c(=O)[nH]c34)CC2)c(=O)n2nc(C3=CCOCC3)nc2n1CC(=O)Nc1ccc(C(F)(F)F)cc1Cl    7.24
CCc1c(N2CCN(C(=O)c3ncnc(C)c3O)CC2)c(=O)n2nc(C3=CCOCC3)nc2n1CC(=O)Nc1ccc(C(F)(F)F)c2cccnc12 [WO2025049746, Example 365]    7.20

* * *

- target: Bifunctional 3'-5' exonuclease/ATP-dependent helicase WRN [480-1251] (UniProt Q14191)
- Construct: 480-1251
- testDetails: Biochemical Activity Assays
measure: IC50 (nM)

Worked set:
CCc1c(N2CCN(C(=O)c3ncnc(C)c3O)CC2)c(=O)n2nc(-c3ccc4c(c3)CCOC4(C)C)nc2n1CC(=O)Nc1ccc(C(F)(F)F)cc1Cl [WO2025049746, Example 195]    39
CCc1c(N2CCN(C(=O)c3ncnc(C)c3O)CC2)c(=O)n2nc(-c3ccc4c(c3)COC4)nc2n1CC(=O)Nc1ccc(C(F)(F)F)cc1OC1CC1 [WO2025049746, Example 416]    159
CCc1c(N2CCN(C(=O)c3ncnc(C)c3O)CC2)c(=O)n2nc(-c3cnc4sccc4c3)nc2n1CC(=O)Nc1ccc(C(F)(F)F)cc1Cl [WO2025049746, Example 310]    27

a: CCc1c(N2CCN(C(=O)c3ncnc(C)c3O)CC2)c(=O)n2nc(-c3ccc4c(c3)COC4)nc2n1CC(=O)Nc1ccc(C(F)(F)F)cc1Cl [WO2025049746, Example 13]
b: CCc1c(N2CCN(C(=O)c3ncnc(C)c3O)CC2)c(=O)n2nc(-c3cccc4c3COC4)nc2n1CC(=O)Nc1ccc(C(F)(F)F)cc1Cl [WO2025049746, Example 15]
[ask] // returns a or b , whichever has the lower IC50 The response must carry the label of the picked entry.
[reply] a

Reference for the values: BindingDB's records for patent WO2025049746
